# TESTED_ON: Dihydroorotate dehydrogenase (quinone), mitochondrial (Plasmodium falciparum (isolate 3D7))
# METHOD_DESCRIPTION: PfDHODH enzyme inhibitors, primary screen, biochemical, C-terminal His tag, absorbance 600 nm (AID 1175);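 also: recombinant parasite enzyme with a five histidine tag at its C terminus; test concentration not given here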
# TEST_PARAMETERS: DCIP absorbance 600 nm, higher = more signal, called active from +8 up or from −8 down
Decision: composite z-score >= -1 yields yes, all other cases yield no.

Q: Please indicate if the recorded composite z-score for COC(=O)[C@@]1(Cc2ccc(OC)cc2)[C@H]2c3cc(C(=O)N(C)C)n(Cc4ccccc4)c3C[C@H]2CN1C(=O)c1ccccc1 meets or exceeds -1.
A: yes

Q: Please indicate if the recorded composite z-score for C=CCOC(=O)[C@H]1[C@@H]2C(=O)O[C@@H](c3ccccc3)[C@@H](c3ccccc3)N2[C@@H](c2ccc(OCCOC(=O)[C@H]3C[C@H]4C(=O)N[C@@H](Cc5ccccc5)C(=O)N4[C@H]3c3ccc(O)cc3)cc2)[C@]12C(=O)Nc1ccc(I)cc12 meets or exceeds -1.
A: no

Q: Please indicate if the recorded composite z-score for O=C1OCC=C[C@H]2OC34C=CCN(Cn5nnc6ccccc65)C(=O)[C@H]3N(CCCCCCO)C(=O)[C@@H]4[C@@H]12 (some centres not stated) meets or exceeds -1.
A: no

Q: Please indicate if the recorded composite z-score for C=C(/C(=C/C[C@@H](OC(=O)c1ccncc1)c1ccccc1OCCO)c1cc(C(=O)OC)ccc1OC)C(C)C meets or exceeds -1.
A: no

Q: Please indicate if the recorded composite z-score for O=C1O[C@H](c2ccccc2)[C@H](c2ccccc2)N2[C@H]1[C@@H](C(=O)O)[C@]1(C(=O)Nc3ccccc31)[C@H]2c1ccc(O)cc1 meets or exceeds -1.
A: no

Q: Please indicate if the recorded composite z-score for COC1(C)CN(Cc2ccccc2Br)[C@H](/C=C/c2ccccc2)[C@H](Cc2ccccc2)O1 (some centres not stated) meets or exceeds -1.
A: yes

Q: Please indicate if the recorded composite z-score for CC1CC/C=C\[C@H]2OC34C=CCN(C(C)C)C(=O)[C@H]3N(CCCCCO)C(=O)[C@@H]4C2C(=O)O1 (some centres not stated) meets or exceeds -1.
A: no

Q: Please indicate if the recorded composite z-score for C=CC[C@@]12N=C(c3ccc(OCCCO)cc3)O[C@@H]1c1ccccc1N(CCS(=O)(=O)c1ccccc1)C2=O meets or exceeds -1.
A: yes

Q: Please indicate if the recorded composite z-score for C=CC[C@@H](OC(=O)Nc1ccc(OC)cc1)c1ccc(OCCO)cc1 meets or exceeds -1.
A: yes

Q: Please indicate if the recorded composite z-score for CO[C@H]1O[C@H](CO)[C@@H](OC(=O)Nc2ccc(Oc3ccccc3)cc2)[C@H](OC(=O)Nc2ccccc2-c2ccccc2)[C@@H]1OC(=O)Nc1ccccc1-c1ccccc1 meets or exceeds -1.
A: yes

Q: Please indicate if the recorded composite z-score for NCCCCCCNC(=O)[C@@H]1C[C@@H]2C(=O)N3CCC[C@H]3C(=O)N2[C@@H]1c1ccc(O)cc1 meets or exceeds -1.
A: no

Q: Please indicate if the recorded composite z-score for O=C1OC[C@@H](c2ccccc2)N2CC(/C=C/c3ccccc3)=CC12 (some centres not stated) meets or exceeds -1.
A: yes

The reported numbers originate from PubChem BioAssay.
